Consider the following compounds and their measured inhibition at 0.8 µM readings.
target: DAGLβ (hDAGLβ-FLAG) (Homo sapiens (Human)); test: competitive ABPP, membrane proteome of transfected HEK293T cells; format: biochemical; conditions: 0.8 μM (stated under the cell); read-out: DAGLβ % inh. 0.8 μM

compound="CC(C)C(=O)N1CCN(C(=O)n2ncc(-c3ccc(OC(F)(F)F)cc3)n2)C(Cc2ccccc2)C1 (stereo not drawn)" measvalue="0 to 25%"
compound="CC(C)(C)OC(=O)N1CCN(C(=O)n2ncc(-c3ccc(OC(F)(F)F)cc3)n2)C(c2ccccc2)C1 (stereo not drawn)" measvalue="0 to 25%"
compound="C#CCCCC(=O)N1CCN(C(=O)n2cc(-c3ccc(OC(F)(F)F)cc3)nn2)C(Cc2ccccc2)C1 (stereo not drawn)" measvalue="0 to 25%"
compound="CC(C)(C)OC(=O)N1CCN(C(=O)n2cc(-c3ccc(OC(F)(F)F)cc3)nn2)C(c2ccccc2)C1 (stereo not drawn)" measvalue="0 to 25%"
compound="C#CCCCC(=O)N1CCN(C(=O)n2ncc(-c3ccc(OC(F)(F)F)cc3)n2)C(Cc2ccccc2)C1 (stereo not drawn)" measvalue="0 to 25%"

# context switch: different compound, same inhibition at 0.8 µM
IN: Fill in the blank: the reported inhibition at 0.8 µM of CC(C)C(=O)N1CCN(C(=O)n2cc(-c3ccc(OC(F)(F)F)cc3)nn2)C(Cc2ccccc2)C1 (stereo not drawn) is ____.
OUT: 0 to 25%

###

target: UniProtKB Q9Y4D2; experiment: competitive ABPP, membrane proteome of transfected HEK293T cells; type: biochemical; conditions: read-out: DAGLα IC50
Sequence (Q9Y4D2 whole entry): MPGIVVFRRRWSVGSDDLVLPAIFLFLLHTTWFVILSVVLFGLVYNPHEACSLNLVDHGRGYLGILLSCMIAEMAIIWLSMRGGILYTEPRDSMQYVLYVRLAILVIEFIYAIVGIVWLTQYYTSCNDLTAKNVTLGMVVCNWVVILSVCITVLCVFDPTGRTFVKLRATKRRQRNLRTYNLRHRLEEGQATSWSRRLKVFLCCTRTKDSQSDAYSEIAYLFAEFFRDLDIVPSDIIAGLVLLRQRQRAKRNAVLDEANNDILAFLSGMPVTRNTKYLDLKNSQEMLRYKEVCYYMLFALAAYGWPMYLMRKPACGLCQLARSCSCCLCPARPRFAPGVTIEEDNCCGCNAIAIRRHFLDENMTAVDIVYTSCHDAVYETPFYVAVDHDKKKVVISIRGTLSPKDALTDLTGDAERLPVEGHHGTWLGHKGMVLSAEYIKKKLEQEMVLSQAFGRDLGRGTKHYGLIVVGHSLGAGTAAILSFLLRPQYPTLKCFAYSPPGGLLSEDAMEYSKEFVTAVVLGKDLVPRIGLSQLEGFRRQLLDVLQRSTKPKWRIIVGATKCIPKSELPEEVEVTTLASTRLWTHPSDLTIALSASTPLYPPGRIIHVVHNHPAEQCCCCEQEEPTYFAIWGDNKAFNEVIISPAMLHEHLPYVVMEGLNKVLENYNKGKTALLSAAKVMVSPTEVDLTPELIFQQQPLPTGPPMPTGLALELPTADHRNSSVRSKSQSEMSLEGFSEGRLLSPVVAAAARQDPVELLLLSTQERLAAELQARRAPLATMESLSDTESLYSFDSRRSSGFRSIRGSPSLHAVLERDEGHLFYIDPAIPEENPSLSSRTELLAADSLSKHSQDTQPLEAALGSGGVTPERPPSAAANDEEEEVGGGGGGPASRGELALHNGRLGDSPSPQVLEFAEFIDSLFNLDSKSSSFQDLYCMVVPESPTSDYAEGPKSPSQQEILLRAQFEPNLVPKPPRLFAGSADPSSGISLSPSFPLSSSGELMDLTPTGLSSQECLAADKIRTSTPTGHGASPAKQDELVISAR
Consider the following compounds and their measured IC50 readings.

Before answering, review these 4 worked examples.
compound="COc1cc(OC)c(-c2ccc(-c3cn(C(=O)N4CCCCC4Cc4ccccc4)nn3)cc2)c(OC)c1 (stereo not shown) [Compound 20]" measvalue="≤ 400 nM"
compound="O=C(N(CCc1ccccc1)CC1CC1)n1ncc(-c2ccc(OC(F)(F)F)cc2)n1 [Compound 131]" measvalue="2000 to 10000 nM"
compound="O=C(N1CCCCC1Cc1ccccc1)n1cc(-c2ccc(CN3CCCC3)cc2)nn1 (stereo not shown) [Compound 93]" measvalue="2000 to 10000 nM"
compound="COc1cnnc(OC)c1-c1ccc(-c2cn(C(=O)N3CCCCC3Cc3ccccc3)nn2)cc1 (stereo not shown) [Compound 83]" measvalue="≤ 400 nM"

IN: What IC50 appears in the records for this compound with UniProtKB Q9Y4D2? COc1ccc(-c2ccc(-c3cn(C(=O)N4CCCCC4Cc4ccccc4)nn3)cc2)c(OC)c1 (stereo not shown) [Compound 62]
OUT: ≤ 400 nM

IN: What IC50 appears in the records for this compound with UniProtKB Q9Y4D2? O=C(N(CCc1ccccc1)C1CCC1)n1ncc(-c2ccc(OC(F)(F)F)cc2)n1 [Compound 128]
OUT: 2000 to 10000 nM

IN: What IC50 appears in the records for this compound with UniProtKB Q9Y4D2? N#Cc1ccc(-c2cn(C(=O)N3CCCCC3Cc3ccccc3)nn2)cc1 (stereo not shown) [Compound 88]
OUT: ≤ 400 nM

###

biological target: DAGLβ (hDAGLβ-FLAG) (Homo sapiens (Human), UniProt Q8NCG7); test: competitive ABPP, membrane proteome of transfected HEK293T cells; format: biochemical; conditions: read-out: DAGLβ IC50
Sequence (Q8NCG7 whole entry): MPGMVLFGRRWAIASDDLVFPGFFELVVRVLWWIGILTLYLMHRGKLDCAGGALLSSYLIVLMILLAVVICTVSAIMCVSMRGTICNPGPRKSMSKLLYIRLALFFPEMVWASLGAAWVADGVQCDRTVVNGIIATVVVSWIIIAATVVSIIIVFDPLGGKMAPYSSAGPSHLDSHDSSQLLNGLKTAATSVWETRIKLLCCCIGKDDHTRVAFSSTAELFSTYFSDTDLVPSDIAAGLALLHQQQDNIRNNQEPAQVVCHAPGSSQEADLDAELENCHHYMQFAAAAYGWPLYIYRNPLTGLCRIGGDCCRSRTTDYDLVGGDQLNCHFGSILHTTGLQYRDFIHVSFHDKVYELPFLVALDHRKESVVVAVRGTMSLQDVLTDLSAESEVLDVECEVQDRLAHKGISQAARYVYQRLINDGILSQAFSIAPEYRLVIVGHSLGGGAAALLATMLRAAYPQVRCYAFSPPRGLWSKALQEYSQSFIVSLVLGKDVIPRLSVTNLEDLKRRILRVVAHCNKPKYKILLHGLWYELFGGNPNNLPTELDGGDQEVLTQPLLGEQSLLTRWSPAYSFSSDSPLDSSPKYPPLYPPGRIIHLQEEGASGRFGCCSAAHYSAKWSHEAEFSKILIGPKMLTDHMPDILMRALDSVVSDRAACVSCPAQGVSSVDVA
pIC50: −log10 of the molar value.
quantityKind: pIC50

Before answering, review these 3 worked examples.
molecule="COc1ccc(-c2ccc(-c3cn(C(=O)N4CCCCC4Cc4ccccc4)nn3)cc2)c(OC)c1 (stereo not shown)" measvalue="5.00 to 5.70"
molecule=O=C(N(CCc1ccccc1)C1CCC1)n1cc(-c2ccc(OC(F)(F)F)cc2)nn1 measvalue="≥ 6.40"
molecule="CC(C)(C)OC(=O)N1CCN(C(=O)n2cc(-c3ccc(OC(F)(F)F)cc3)nn2)C(Cc2ccccc2)C1 (stereo not shown)" measvalue="≥ 6.40"

IN: Fill in the blank: the reported pIC50 of CC(C)(C)CN(CCc1ccncc1)C(=O)n1cc(-c2ccc(OC(F)(F)F)cc2)nn1 is ____.
OUT: ≥ 6.40

IN: Fill in the blank: the reported pIC50 of O=C(N(CCc1ccccc1)C1CCC1)n1ncc(-c2ccc(OC(F)(F)F)cc2)n1 is ____.
OUT: 5.70 to 6.40

IN: Fill in the blank: the reported pIC50 of COc1cnccc1-c1ccc(-c2cn(C(=O)N3CCCCC3Cc3ccccc3)nn2)cc1 (stereo not shown) is ____.
OUT: 5.00 to 5.70

IN: Fill in the blank: the reported pIC50 of CCC(CC)CN(CCc1ccncc1)C(=O)n1cc(-c2ccc(OC(F)(F)F)cc2)nn1 is ____.
OUT: ≥ 6.40

IN: Fill in the blank: the reported pIC50 of COc1cncc(OC)c1-c1ccc(-c2cn(C(=O)N3CCCCC3Cc3ccccc3)nn2)cc1 (stereo not shown) is ____.
OUT: ≥ 6.40

IN: Fill in the blank: the reported pIC50 of COc1ncnc(OC)c1-c1ccc(-c2cn(C(=O)N3CCCCC3Cc3ccccc3)nn2)cc1 (stereo not shown) is ____.
OUT: ≥ 6.40

IN: Fill in the blank: the reported pIC50 of CN(C)C(=O)c1ccccc1-c1ccc(-c2cn(C(=O)N3CCCCC3Cc3ccccc3)nn2)cc1 (stereo not shown) is ____.
OUT: 5.70 to 6.40

IN: Fill in the blank: the reported pIC50 of O=C(N1CCCCC1Cc1ccccc1)n1cc(-c2ccc(-c3ccncc3)cc2)nn1 (stereo not shown) is ____.
OUT: 5.00 to 5.70

IN: Fill in the blank: the reported pIC50 of O=C(N1CCCCC1Cc1ccccc1)n1cc(-c2ccc(CN3CCOCC3)cc2)nn1 (stereo not shown) is ____.
OUT: 5.70 to 6.40

IN: Fill in the blank: the reported pIC50 of COc1ccc(-c2cn(C(=O)N3CCCCC3Cc3ccccc3)nn2)cc1 (stereo not shown) is ____.
OUT: ≥ 6.40

###

Consider the following compounds and their measured IC50 readings.
molecular target: DAGLβ (hDAGLβ-FLAG) (Homo sapiens (Human)); test: competitive ABPP, membrane proteome of transfected HEK293T cells; assay type: biochemical; details: read-out: DAGLβ IC50

Before answering, review these 3 worked examples.
compound="CC(C)(C)CN(CCc1ccccc1)C(=O)n1ncc(-c2ccc(OC(F)(F)F)cc2)n1 [Compound 127]" quantitykind=IC50 measvalue="≤ 400 nM"
compound="COc1cc(C)cc(OC)c1-c1ccc(-c2cn(C(=O)N3CCCCC3Cc3ccncc3)nn2)cc1 (centres unmarked) [Compound 68]" quantitykind=IC50 measvalue="2000 to 10000 nM"
compound="CCC(CC)CN(CCc1cccnc1)C(=O)n1ncc(-c2ccc(OC(F)(F)F)cc2)n1 [Compound 137]" quantitykind=IC50 measvalue="400 to 2000 nM"

IN: Fill in the blank: the reported IC50 of CCC(CC)CN(CCc1ccncc1)C(=O)n1ncc(-c2ccc(OC(F)(F)F)cc2)n1 [Compound 54] is ____.
OUT: 2000 to 10000 nM

IN: Fill in the blank: the reported IC50 of O=C(N1CCCCC1Cc1ccccc1)n1cc(-c2ccc(-c3cccnc3)cc2)nn1 (centres unmarked) [Compound 60] is ____.
OUT: 2000 to 10000 nM

IN: Fill in the blank: the reported IC50 of COc1cc(C(N)=O)cc(OC)c1-c1ccc(-c2cn(C(=O)N3CCCCC3Cc3ccccc3)nn2)cc1 (centres unmarked) [Compound 78] is ____.
OUT: > 10000 nM

IN: Fill in the blank: the reported IC50 of Cc1cncc(C)c1-c1ccc(-c2cn(C(=O)N3CCCCC3Cc3ccccc3)nn2)cc1 (centres unmarked) [Compound 71] is ____.
OUT: 400 to 2000 nM

IN: Fill in the blank: the reported IC50 of O=C(N1CCCCC1Cc1ccccc1)n1cc(-c2ccc(Br)nc2)nn1 (centres unmarked) [Compound 90] is ____.
OUT: ≤ 400 nM

###

molecular target: DAGLα (Mus musculus (Mouse), UniProt Q6WQJ1); test: gel-based ABPP of mouse brain proteome, endogenous DAGLs, probe compound 58 and HT-01; type: biochemical
Sequence (Q6WQJ1 whole entry): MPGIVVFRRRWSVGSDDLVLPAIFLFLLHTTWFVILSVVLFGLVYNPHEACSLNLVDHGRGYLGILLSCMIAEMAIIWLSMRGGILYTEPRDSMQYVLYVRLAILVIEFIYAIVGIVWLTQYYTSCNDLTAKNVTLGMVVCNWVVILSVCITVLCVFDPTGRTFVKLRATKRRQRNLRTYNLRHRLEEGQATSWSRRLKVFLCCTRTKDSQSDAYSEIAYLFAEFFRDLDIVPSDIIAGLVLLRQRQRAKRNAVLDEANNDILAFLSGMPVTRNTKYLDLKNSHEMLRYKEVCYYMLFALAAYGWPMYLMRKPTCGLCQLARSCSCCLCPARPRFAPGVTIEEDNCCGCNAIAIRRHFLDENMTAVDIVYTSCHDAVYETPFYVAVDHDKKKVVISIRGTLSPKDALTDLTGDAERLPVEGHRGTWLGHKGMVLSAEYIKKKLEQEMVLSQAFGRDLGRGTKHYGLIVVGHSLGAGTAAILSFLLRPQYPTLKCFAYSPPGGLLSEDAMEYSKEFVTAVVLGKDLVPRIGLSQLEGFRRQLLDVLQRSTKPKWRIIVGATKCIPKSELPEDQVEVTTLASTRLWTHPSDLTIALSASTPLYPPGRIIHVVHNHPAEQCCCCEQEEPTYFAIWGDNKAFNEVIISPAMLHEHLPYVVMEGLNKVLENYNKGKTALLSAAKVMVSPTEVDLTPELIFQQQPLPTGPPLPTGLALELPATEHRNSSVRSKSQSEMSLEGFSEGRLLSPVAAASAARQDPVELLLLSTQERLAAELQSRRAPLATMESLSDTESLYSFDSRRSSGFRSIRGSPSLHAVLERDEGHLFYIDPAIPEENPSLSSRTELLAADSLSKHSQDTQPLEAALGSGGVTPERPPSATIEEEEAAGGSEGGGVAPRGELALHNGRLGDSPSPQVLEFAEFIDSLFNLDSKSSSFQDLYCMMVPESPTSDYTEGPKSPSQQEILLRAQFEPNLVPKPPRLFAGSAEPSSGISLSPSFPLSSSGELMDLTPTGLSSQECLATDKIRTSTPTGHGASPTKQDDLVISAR
quantityKind: IC50

IN: Fill in the blank: the reported IC50 of C#CCO[C@@H]1CC[C@H](Cc2ccccc2)N(C(=O)n2ncc(C(O)(c3ccc(F)cc3)c3ccc(F)cc3)n2)C1 is ____.
OUT: 0.5 to 1.2 nM

###

Biological target: DAGLβ (Mus musculus (Mouse))
Sequence (Q91WC9 whole entry): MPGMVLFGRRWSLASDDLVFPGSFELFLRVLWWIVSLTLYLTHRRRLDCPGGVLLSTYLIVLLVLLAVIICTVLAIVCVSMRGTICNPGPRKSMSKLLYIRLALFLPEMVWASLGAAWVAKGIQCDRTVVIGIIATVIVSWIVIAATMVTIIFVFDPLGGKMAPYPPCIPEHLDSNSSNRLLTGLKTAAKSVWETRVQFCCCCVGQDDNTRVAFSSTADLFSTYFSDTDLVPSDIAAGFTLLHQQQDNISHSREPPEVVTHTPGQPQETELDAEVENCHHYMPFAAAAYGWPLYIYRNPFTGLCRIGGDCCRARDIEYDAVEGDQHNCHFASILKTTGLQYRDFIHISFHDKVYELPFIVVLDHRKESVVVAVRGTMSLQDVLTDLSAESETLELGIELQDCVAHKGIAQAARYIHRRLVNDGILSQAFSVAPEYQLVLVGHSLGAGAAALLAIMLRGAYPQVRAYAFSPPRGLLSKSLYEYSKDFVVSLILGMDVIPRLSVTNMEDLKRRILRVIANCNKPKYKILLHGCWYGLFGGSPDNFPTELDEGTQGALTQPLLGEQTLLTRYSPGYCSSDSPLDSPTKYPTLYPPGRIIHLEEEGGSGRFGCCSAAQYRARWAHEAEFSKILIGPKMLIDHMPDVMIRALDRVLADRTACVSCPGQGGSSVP
Test: gel-based ABPP of mouse brain proteome, endogenous DAGLs, probe compound 58 and HT-01
Format: biochemical
Details: mouse brain proteome, probes 1 μM, 30 min; read-out: IC50, DAGLβ labeling by compound 58 and HT-01
Procedure: Compounds 14 and 17 were evaluated for activity and selectivity against endogenous DAGLs and other serine hydrolases in the mouse brain proteome using a ABPP of mouse brain proteome assay as described in Example 16. These experiments were performed using three different activity-based probesprobe compound 58 (targets DAGLα and DAGLβ), HT-01 (targets DAGLα and DAGLβ), and FP-Rh (broad-spectrum serine hydrolase-directed probe fluorophosphonate-rhodamine). […]
pIC50: −log10 of the molar value.
quantityKind: pIC50

IN: Fill in the blank: the reported pIC50 of CC(C)(C)OC(=O)N1CCN(C(=O)n2cc(-c3ccc(OC(F)(F)F)cc3)nn2)C(Cc2ccccc2)C1 (stereo not shown) is ____.
OUT: 8.32 to 8.64
